Attribution: PubChem BioAssay (NCI)

The entries below are paired with their reported growth inhibition.
# PROCEDURE TEXT: NCI Yeast Anticancer Drug Screen. Data for the sgs1 strain (AID 173);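 further: 0% = growth of vehicle-only control cultures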
# CONDITION CONTEXT: S. cerevisiae sgs1 mutant, at 3.7 µM, hits give high values
Compounds without any hit were thinned out: in the full panel of roughly 79,000, 15% have a hit.
ENDPOINT LABEL: growth inhibition (%)

MOLECULE	OUTPUT UNIT	NUMERIC RESULT
CS(=O)(=O)SCc1ccc([N+](=O)[O-])cc1	%	39
Cn1c(-c2ccc(/C=N\N3CCN(/N=C/c4ccc(-c5c[n+]6ccccc6n5C)cc4)CC3)cc2)c[n+]2ccccc12	%	-33
CCOC(=O)C(C(=O)OCC)=P(c1ccccc1)(c1ccccc1)c1ccccc1	%	0
CN(C)Cc1cc(N=Nc2ccc(Cl)cc2)ccc1OC(=O)c1ccccc1	%	5
O=[N+]([O-])c1cc[n+]([O-])cc1	%	-3
CN(C)CCNC(=O)c1cccc2cc([N+](=O)[O-])ccc12	%	22
CCCCCCC(O)CNCc1ccnc2ccc(OC)cc12 (stereo unspecified)	%	12
COC(C(O)CO)C(O)C(O)C(=O)NNc1ccccc1 (stereo unspecified)	%	34
CCCCCCN(CCCCCC)CC(O)c1ccnc2ccc(OC)cc12 (stereo unspecified)	%	-2
COC(=O)CC1CCc2c(ccc3ccccc23)C1(C)C(=O)OC (stereo unspecified)	%	-30
Cc1cc(NCCCCCCCCNc2cc(C)nc3cc(N)ccc23)c2ccc(N)cc2n1	%	-72
O=[N+]([O-])c1cccc2nc3ccccc3c(NCCCn3ccnc3[N+](=O)[O-])c12	%	74
CCOC(=O)c1ccc(NC(=O)O/N=C(/Cl)C(C)C)cc1	%	-4
NCCNCCNc1ccc(NCCNCCN)c2c1C(=O)c1c(O)ccc(O)c1C2=O	%	4
CCCCCOC(=S)SC(=O)OCC	%	4
CCCC/C([O-])=C1/C(=O)N(c2ccccc2)N=C1C.CCCC/C([O-])=C1/C(=O)N(c2ccccc2)N=C1C.[Cu+2]	%	-1
CC(C)(C)c1ccc(NS(=O)(=O)c2ccc(N)cc2)cc1	%	6
O=C(NO)Nc1cc(Cl)cc(Cl)c1	%	54
COC(=O)C1(C)CCc2c(ccc3ccccc23)C1=O (stereo unspecified)	%	3
CN(C)c1ccc(N=Nc2ccncc2)cc1	%	41
Cc1c(C)c(C)c(CSC(=N)N)c(C)c1C	%	-34
Oc1[nH]c2ccccc2c1N=NC(=S)N1CCCCC1	%	16
Cc1cc2c(cc1C)[n+]([O-])c(-c1nc3ccccc3s1)c(N)[n+]2[O-]	%	21
CC(=O)OC1CC2C(C)(C)C(=O)C=C[C@]2(C)C2CCC3(C)C(=CCC3[C@H](CO)C[C@H](O)C(=O)C(C)(C)O)[C@]12C (stereo partly specified)	%	-5
COc1ccc(C2C3=C(COC3=O)OC(C)(C)Oc3cc4c(cc32)OCO4)cc1OC (stereo unspecified)	%	23
CC(=O)Nc1ccc(/C=C/[N+](=O)[O-])cc1	%	11
S=C1SCN(C2CCCCC2)CN1C1CCCCC1	%	-22
CCOC(=O)[C@H]1Nc2ccc(OC)cc2C2c3ccccc3CC21 (stereo partly specified)	%	15
Oc1ccc2ccccc2c1CCc1c(O)ccc2ccccc12	%	19
CC(C)c1ccc(NC(=S)NC(=O)c2ccccc2)cc1	%	-16
Clc1ccc(NCNC2Nc3ccccc3N2)cc1Cl	%	5
O=C(O)C1CC(c2ccccc2)=NN1c1ccccc1 (stereo unspecified)	%	-34
NC(=S)NC(=S)Nc1ccccc1	%	9
CCCCCCSc1ncnc2[nH]ncc12	%	-3
CC(C)(CCCCC(C)(C)[N+](C)(C)C)[N+](C)(C)C	%	1
Cc1cc(N(CCOS(C)(=O)=O)CCOS(C)(=O)=O)ccc1C=Nc1ccc(-c2nc(Cc3ccccc3)sc2C)cc1	%	15
Cc1cc(O)c(C(C)C)cc1C1(c2cc(C(C)C)c(O)cc2C)OC(=O)c2ccccc21	%	4
CC(C)OC(=O)Nc1ccc2nc(-c3cscn3)[nH]c2c1	%	3
Nc1nc(N)c2nc(CNc3ccc(C(=O)NC(CCC(=O)O)C(=O)O)cc3F)cnc2n1 (stereo unspecified)	%	14
Cc1cc(-c2cc(C)c(O)c(C(C)(C)C)c2)cc(C(C)(C)C)c1O	%	-8
CCCCc1nnc(NS(=O)(=O)c2ccc(C)cc2)s1	%	-22
N#CNC(N)=Nc1cc2ccccc2c2ccccc12	%	58
CSc1nnc(SC)nn1	%	3
COc1ccc2c(c1)n([O-])c1ccccc1[n+]2=O	%	18
CCc1c(Cl)c(C)cc(O)c1Cl	%	-4
CCC(C)OC(=O)Nc1ccc(C)c(NC(=O)OC(C)CC)c1 (stereo unspecified)	%	-5
